molecular target: D(1A) dopamine receptor (Homo sapiens); test: NVS_GPCR_hDRD1: NovaScreen (NVS) G Protein-Coupled Receptor Assay for human Dopamine Receptor D1 (DRD1) (AID 2283269)
Results filed as inconclusive are left out. Calls of active or inactive are those of the source. Rule for the calls: active = hit-call score of the fitted dose curve at least 0.9, where 1 is the maximum; inconclusive = response in the unintended direction; inactive = score below 0.9.
Lab note: assign the record to one of TRUE = active, FALSE = inactive

molecule="CCCCCCC(C)OC(=O)COc1nc(F)c(Cl)c(N)c1Cl (stereo not given)" subjectoftest="D(1A) dopamine receptor (Homo sapiens)" answerlabel=TRUE

In: Dear all, I need the recorded test outcome for Oc1ccc(C(c2ccc(O)cc2)C(Cl)(Cl)Cl)cc1 , thank you.
Out: TRUE

In: Dear all, I need the recorded test outcome for CC1(C)C(C=C(Cl)Cl)C1C(=O)OCc1cccc(Oc2ccccc2)c1 (stereo not given) , thank you.
Out: FALSE

In: Dear all, I need the recorded test outcome for CC(C)(c1ccc(O)cc1)c1ccc(O)cc1 , thank you.
Out: FALSE

In: Dear all, I need the recorded test outcome for CC(C)CCCCCCc1ccc(O)cc1 , thank you.
Out: TRUE

* * *

read-out: Monokine induced gamma interferon (MIG), CXCL9 (gene 4283); experiment: BSK_hDFCGF_MIG: BioMAP Diversity Plus: hDFCGF Assay for Monokine induced gamma interferon (MIG) Biomarker Activity (AID 2283063); conditions: primary human foreskin fibroblasts; actives raise or lower the signal
The source made the active and inactive calls. The calls were made as follows: active = hit-call score of the fitted dose curve at least 0.9, where 1 is the maximum; inactive = score below 0.9.
Lab note: assign the record to one of yes (1) = active, no (0) = inactive

Worked set:
molecule="CCCCC(CC)COC(=O)c1ccccc1C(=O)O (configuration not stated)" answerlabel="yes (1)"
molecule=c1ccc2[nH]c(-c3cscn3)nc2c1 answerlabel="no (0)"
molecule=COC(=O)CSc1cc(N=c2sc(=O)n3n2CCCC3)c(F)cc1Cl answerlabel="no (0)"
molecule=c1ccc(Nc2ccccc2)cc1 answerlabel="no (0)"

In: Dear all, I need the recorded test outcome for Cc1nn(C)c(Oc2ccccc2)c1C=NOCc1ccc(C(=O)OC(C)(C)C)cc1 , thank you.
Out: no (0)

In: Dear all, I need the recorded test outcome for CCCCOC(=O)C(C)Oc1ccc(Oc2ccc(C(F)(F)F)cn2)cc1 (configuration not stated) , thank you.
Out: no (0)

In: Dear all, I need the recorded test outcome for CCOC(=O)C(C)Oc1ccc(Oc2nc3ccc(Cl)cc3o2)cc1 (configuration not stated) , thank you.
Out: no (0)

In: Dear all, I need the recorded test outcome for O=C(Nc1ccc([N+](=O)[O-])cc1Cl)c1cc(Cl)ccc1O , thank you.
Out: yes (1)

In: Dear all, I need the recorded test outcome for CCCN(CCC)C(=O)SCC , thank you.
Out: no (0)

In: Dear all, I need the recorded test outcome for COC(=O)c1ccc(CNS(C)(=O)=O)cc1S(=O)(=O)NC(=O)Nc1nc(OC)cc(OC)n1 , thank you.
Out: no (0)

In: Dear all, I need the recorded test outcome for CCSC(=O)N(CC(C)C)CC(C)C , thank you.
Out: no (0)

In: Dear all, I need the recorded test outcome for C[C@]12CC[C@@H]3c4ccc(O)cc4C[C@@H](CCCCCCCCCS(=O)CCCC(F)(F)C(F)(F)F)[C@H]3[C@@H]1CC[C@@H]2O (some centres not stated) , thank you.
Out: no (0)

* * *

biological target: zebrafish Estrogen Receptor (ER1), esr1 (gene 259252); assay: ATG_zfER1_XSP2: Attagene TRANS-FACTORIAL Multi-Species (XSP2) HepG2 Assay for zebrafish Estrogen Receptor (ER1) (AID 2283816)
Inconclusive results are not listed. Active and inactive are the calls of the source. The calls were made as follows: active = hit-call score of the fitted dose curve at least 0.9, where 1 is the maximum; inconclusive = response in the unintended direction; inactive = score below 0.9.
Lab note: assign the record to one of active, inactive

molecule=C#C[C@]1(O)CC[C@H]2[C@@H]3CCC4=CC(=O)CC[C@@H]4[C@H]3CC[C@@]21CC answerlabel=inactive
molecule=CN(C)C(=O)Nc1ccc(Cl)c(Cl)c1 answerlabel=inactive
molecule=CSC(=O)c1cccc2nnsc12 answerlabel=inactive
molecule="C=CCOC(Cn1ccnc1)c1ccc(Cl)cc1Cl (stereo not given)" answerlabel=inactive

Now turn to the next molecule.
In: Dear all, I need the recorded test outcome for Oc1ccc(C(c2ccc(O)cc2)C(Cl)(Cl)Cl)cc1 , thank you.
Out: active
